# mouse pl. T1/2 values compiled below
Test: Plasma stability in mouse plasma
Type: in vitro ADME
Settings: mouse plasma, 37° C., up to 1440 min
Bridge positions count the residues as written; N and C are the ends. Square brackets hold non-standard residues; d marks the D form. Peptide text beside a SMILES is read from it. * marks the point of attachment. Myristoyl = CCCCCCCCCCCCCC(=O)*; Decanoyl = CCCCCCCCCC(=O)*; Dab = NCC[C@H](N)C(=O)O

[
  {
    "MOLECULE": "CCCCCCCCCC(=O)NCC[C@@H]1NC(=O)[C@H](Cc2ccc(O)cc2)NC(=O)[C@@H]2CSSC[C@H](NC(=O)[C@H](C)NC(=O)[C@H](Cc3c[nH]cn3)NC(=O)[C@H](Cc3ccc(O)cc3)NC(=O)[C@@H]3CCCN3C(=O)[C@H]3CCCN3C(=O)[C@H](CCCCN)NC1=O)C(=O)N[C@@H](CCCNC(=N)N)C(=O)N[C@@H](C)C(=O)N1CCC[C@@H]1C(=O)N[C@@H](CCN)C(=O)N[C@@H](CCCNC(=N)N)C(=O)N[C@@H](Cc1ccc(O)cc1)C(=O)N2 [Ex. 10] (cyclo(YHACRA[dP][Dab]RYCY[Dab](Decanoyl)K[dP]P); disulfide 4-11)",
    "mouse pl. T1/2 (h)": 24
  },
  {
    "MOLECULE": "CCCCCCCCCCCCCC(=O)NCCCC[C@@H]1NC(=O)[C@H](Cc2ccc(O)cc2)NC(=O)[C@@H]2CSSC[C@H](NC(=O)[C@H](C)NC(=O)[C@H](Cc3c[nH]cn3)NC(=O)[C@H](Cc3ccc(O)cc3)NC(=O)[C@@H]3CCCN3C(=O)[C@H]3CCCN3C(=O)[C@H](CCCCN)NC1=O)C(=O)N[C@@H](CCCNC(=N)N)C(=O)N[C@@H](C)C(=O)N1CCC[C@@H]1C(=O)N[C@@H](CCN)C(=O)N[C@@H](CCCNC(=N)N)C(=O)N[C@@H](Cc1ccc(O)cc1)C(=O)N2 [Ex. 19] (cyclo(YHACRA[dP][Dab]RYCYK(Myristoyl)K[dP]P); disulfide 4-11)",
    "mouse pl. T1/2 (h)": 24
  }
]

----------
Test: Cytotoxicity, MTT reduction assay, COS-7 cells
Assay type: cell-based
Conditions: African green monkey, COS-7 cells (CRL-1651), 12.5-50 μM
Bridge positions count the residues as written; N and C are the ends. Square brackets hold non-standard residues; d marks the D form. Peptide text beside a SMILES is read from it. * marks the point of attachment. Lauroyl = CCCCCCCCCCCC(=O)*; Dab = NCC[C@H](N)C(=O)O
MEASUREMENT_NAME: GI50 at 48 h

[
  {
    "COMPOUND": "CCCCCCCCCCCC(=O)NCC[C@@H]1NC(=O)[C@H](Cc2ccc(O)cc2)NC(=O)[C@@H]2CSSC[C@H](NC(=O)[C@H](C)NC(=O)[C@H](Cc3c[nH]cn3)NC(=O)[C@H](Cc3ccc(O)cc3)NC(=O)[C@@H]3CCCN3C(=O)[C@H]3CCCN3C(=O)[C@H](CCCCN)NC1=O)C(=O)N[C@@H](CCCNC(=N)N)C(=O)N[C@@H](C)C(=O)N1CCC[C@@H]1C(=O)N[C@@H](CCN)C(=O)N[C@@H](CCCNC(=N)N)C(=O)N[C@@H](Cc1ccc(O)cc1)C(=O)N2 [Ex. 11] (cyclo(YHACRA[dP][Dab]RYCY[Dab](Lauroyl)K[dP]P); disulfide 4-11)",
    "ASSAY_VALUE": "> 50 µM"
  },
  {
    "COMPOUND": "CCCCCCCCCCCC(=O)NCC[C@@H]1NC(=O)[C@H]2CCCN2C(=O)[C@H](C)NC(=O)[C@H](CCCNC(=N)N)NC(=O)[C@@H]2CSSC[C@H](NC(=O)[C@H](Cc3ccc(O)cc3)NC(=O)[C@H](CCCNC(=N)N)NC1=O)C(=O)N[C@@H](Cc1ccc(O)cc1)C(=O)N[C@@H](CCC(N)=O)C(=O)N[C@@H](CCCCN)C(=O)N1CCC[C@@H]1C(=O)N1CCC[C@H]1C(=O)N[C@@H](Cc1ccc(O)cc1)C(=O)N[C@@H](Cc1c[nH]cn1)C(=O)N[C@@H](C)C(=O)N2 [Ex. 5] (cyclo(YHACRA[dP][Dab](Lauroyl)RYCYQK[dP]P); disulfide 4-11)",
    "ASSAY_VALUE": "> 43 µM"
  }
]

----------
Molecular target: human CXCR4 (Homo sapiens)
Construct: expressed in transfected cells; host or cells: mouse pre-B cell line 300-19
Sequence (P61073 whole entry): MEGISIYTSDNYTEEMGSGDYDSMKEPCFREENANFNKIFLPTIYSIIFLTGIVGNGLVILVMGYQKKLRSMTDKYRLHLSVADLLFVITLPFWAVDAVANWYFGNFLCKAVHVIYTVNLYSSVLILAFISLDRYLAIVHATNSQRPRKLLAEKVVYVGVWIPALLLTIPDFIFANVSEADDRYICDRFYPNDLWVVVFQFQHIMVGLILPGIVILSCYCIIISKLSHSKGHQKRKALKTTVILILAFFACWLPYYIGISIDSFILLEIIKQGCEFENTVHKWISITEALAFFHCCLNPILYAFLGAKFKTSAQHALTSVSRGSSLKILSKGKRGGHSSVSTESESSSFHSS
Test: Ca2+-assay: CXCR4-antagonizing activity (SDF-1 induced calcium mobilization)
Assay type: cell-based
Conditions: mouse pre-B cell line 300-19 transfected with human CXCR4; SDF-1 induced Ca2+ mobilization; read-out: IC50% [nM] ± SD, CXCR4 receptor
Bridge positions count the residues as written; N and C are the ends. Square brackets hold non-standard residues; d marks the D form. Peptide text beside a SMILES is read from it. * marks the point of attachment. Lauroyl = CCCCCCCCCCCC(=O)*; Decanoyl = CCCCCCCCCC(=O)*; Octanoyl = CCCCCCCC(=O)*; Dab = NCC[C@H](N)C(=O)O
MEASUREMENT_NAME: IC50 (nM)

[
  {
    "COMPOUND": "CCCCCCCC(=O)NCCCC[C@@H]1NC(=O)[C@H](Cc2c[nH]cn2)NC(=O)[C@H](Cc2ccc(O)cc2)NC(=O)[C@@H]2CCCN2C(=O)[C@H]2CCCN2C(=O)[C@H](CCCCN)NC(=O)[C@H](CCC(N)=O)NC(=O)[C@H](Cc2ccc(O)cc2)NC(=O)[C@@H]2CSSC[C@H](NC1=O)C(=O)N[C@@H](CO)C(=O)N[C@@H](C)C(=O)N1CCC[C@@H]1C(=O)N[C@@H](CCN)C(=O)N[C@@H](CCCNC(=N)N)C(=O)N[C@@H](Cc1ccc(O)cc1)C(=O)N2 [Ex. 3] (cyclo(YHK(Octanoyl)CSA[dP][Dab]RYCYQK[dP]P); disulfide 4-11)",
    "ASSAY_VALUE": 19.4
  },
  {
    "COMPOUND": "CCCCCCCCCC(=O)NCCCC[C@@H]1NC(=O)[C@H](Cc2ccc(O)cc2)NC(=O)[C@@H]2CSSC[C@H](NC(=O)[C@H]([C@@H](C)O)NC(=O)[C@H](Cc3c[nH]cn3)NC(=O)[C@H](Cc3ccc(O)cc3)NC(=O)[C@@H]3CCCN3C(=O)[C@H]3CCCN3C(=O)[C@H](CCCCN)NC1=O)C(=O)N[C@@H](CCCNC(=N)N)C(=O)NCC(=O)N1CCC[C@@H]1C(=O)N[C@@H](CCN)C(=O)N[C@@H](CCCNC(=N)N)C(=O)N[C@@H](Cc1ccc(O)cc1)C(=O)N2 [Ex. 15] (cyclo(YHTCRG[dP][Dab]RYCYK(Decanoyl)K[dP]P); disulfide 4-11)",
    "ASSAY_VALUE": 11.2
  },
  {
    "COMPOUND": "CCCCCCCC(=O)NCCCC[C@@H]1NC(=O)[C@H](Cc2ccc(O)cc2)NC(=O)[C@@H]2CSSC[C@H](NC(=O)[C@H](Cc3ccc(O)cc3)NC(=O)[C@H](Cc3c[nH]cn3)NC(=O)[C@H](Cc3ccc(O)cc3)NC(=O)[C@@H]3CCCN3C(=O)[C@H]3CCCN3C(=O)[C@H](CCCCN)NC1=O)C(=O)N[C@@H](CO)C(=O)N[C@@H](C)C(=O)N1CCC[C@@H]1C(=O)N[C@@H](CCN)C(=O)N[C@@H](CCCNC(=N)N)C(=O)N[C@@H](Cc1ccc(O)cc1)C(=O)N2 [Ex. 12] (cyclo(YHYCSA[dP][Dab]RYCYK(Octanoyl)K[dP]P); disulfide 4-11)",
    "ASSAY_VALUE": 1.8
  },
  {
    "COMPOUND": "CCCCCCCCCCCC(=O)NCCCC[C@@H]1NC(=O)[C@H](Cc2ccc(O)cc2)NC(=O)[C@@H]2CSSC[C@H](NC(=O)[C@H](C)NC(=O)[C@H](Cc3c[nH]cn3)NC(=O)[C@H](Cc3ccc(O)cc3)NC(=O)[C@@H]3CCCN3C(=O)[C@H]3CCCN3C(=O)[C@H](CCCCN)NC1=O)C(=O)N[C@@H](CCCNC(=N)N)C(=O)N[C@@H](C)C(=O)N1CCC[C@@H]1C(=O)N[C@@H](CCN)C(=O)N[C@@H](CCCNC(=N)N)C(=O)N[C@@H](Cc1ccc(O)cc1)C(=O)N2 [Ex. 17] (cyclo(YHACRA[dP][Dab]RYCYK(Lauroyl)K[dP]P); disulfide 4-11)",
    "ASSAY_VALUE": 2.8
  }
]

Where do the numbers come from? From patent US8716242B2.
